Target: HLA-A*03:01
Assay: IEDB peptide-MHC binding, purified MHC/competitive/radioactivity; filed as Kd, often an IC50 or EC50 that approximates it; bounds were set here for any values at or beyond the usual limits of such assays
Details: source organism: Homo sapiens
Measurement Kind: pKd
Scale explanation: pKd corresponds to minus log10 of a concentration expressed in moles per litre.

Entry `YTKVVHYRK` — recorded pKd = 4.74

----------
Biological target: HLA-A*11:01
Test: IEDB peptide-MHC binding, purified MHC/competitive/radioactivity; filed as Kd, often an IC50 or EC50 that approximates it; bounds were set here for any values at or beyond the usual limits of such assays
Conditions: source organism: Influenza A virus (A/Puerto Rico/8/1934(H1N1))
Measurement Kind: Kd (nM)
Report as a plain number; the unit nM is understood.

Reported Kd ( `LMQGSTLPR` ) = 58
